target: PCNA (human, UniProt P12004 1-261); assay: NMR; 1H-15N TROSY titration, T73 CSP, single-site model; text gives ~0.7 mM; NMR: 100 uM PCNA, 20 mM sodium phosphate, 50 mM NaCl, pH 7.0, 20 uM DSS, 0.01% NaN3, 5% 2H2O, 35 C; settings: protein: recombinant; tags: N-terminal His6 and PreScission site, cleaved; residual GPH- at N terminus; chain copies: 3; blunt
Sequence (P12004 whole entry): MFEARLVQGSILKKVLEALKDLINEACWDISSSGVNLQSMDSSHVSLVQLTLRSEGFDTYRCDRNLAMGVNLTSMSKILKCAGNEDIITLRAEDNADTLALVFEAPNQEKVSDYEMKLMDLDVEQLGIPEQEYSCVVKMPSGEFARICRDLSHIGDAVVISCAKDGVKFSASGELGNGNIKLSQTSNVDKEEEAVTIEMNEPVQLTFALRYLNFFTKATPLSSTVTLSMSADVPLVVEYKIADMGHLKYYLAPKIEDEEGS
experimental.readout: Kd (µM)
Numbers only, in µM.

Query :: What measured Kd goes with 10 bp dsDNA (dsDNA) DNA 1: ATACGATGGG DNA 2: CCCATCGTAT ?
Result :: 700
